Exercise: state measured pIC50 for each of the compounds provided.
study-system: GST-tagged KRAS-G12V (2-169) (Homo sapiens, UniProt P01116, G12V)
Sequence (P01116 2-169 isoform P01116-2 G12V): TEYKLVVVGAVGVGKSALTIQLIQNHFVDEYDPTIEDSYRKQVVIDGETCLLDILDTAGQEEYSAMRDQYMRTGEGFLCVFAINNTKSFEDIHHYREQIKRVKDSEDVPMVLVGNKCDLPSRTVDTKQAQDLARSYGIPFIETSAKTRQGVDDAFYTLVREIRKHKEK
assay-name: Nucleotide exchange assay (NEA), SOS-mediated, HTRF, KRAS G12V
Assay type: biochemical
condition-parameters: Table 4; IC50 extracted at 90 min; 80 nM SOS
pIC50: −log10 of the molar value.

Which pIC50 reading was recorded for the compound N#Cc1c(N)sc2c1C1(CC2)CN(c2nc(OC[C@@]34CCCN3C[C@H](F)C4)nc(N3CCC[C@@H](O)C3)n2)C1 [Compound 23] ?
6.00 to 7.00

Which pIC50 reading was recorded for the compound CCN(c1nc(OC[C@@]23CCCN2C[C@H](F)C3)nc(N2CC3(C2)SCc2sc(N)c(C#N)c23)n1)C1(C#N)CC1 [Compound 238] ?
> 8.00

Which pIC50 reading was recorded for the compound N#CCC12CC1CN(c1nc(OC[C@@]34CCCN3C[C@H](F)C4)nc(N3CC4(CCc5sc(N)c(C#N)c54)C3)n1)C2 (stereo partly drawn) [Compound 42] ?
6.00 to 7.00

Which pIC50 reading was recorded for the compound CN(c1nc(OCC2(CN3CCOCC3)CC2)nc(N2CC3(CCc4sc(N)c(C#N)c43)C2)n1)[C@@H]1COC[C@@H]1O (racemic) [Compound 94] ?
6.00 to 7.00

Which pIC50 reading was recorded for the compound N#Cc1c(N)sc2c1C1(CN(c3nc(OC[C@@]45CCCN4C[C@H](F)C5)nc(N4C5CCC4CC(=O)C5)n3)C1)SC2 [Compound 273] ?
7.00 to 8.00

Which pIC50 reading was recorded for the compound CCN(c1nc(OCC2(CN3C4CCC3COC4)CC2)nc(N2CC3(C2)SCc2sc(N)c(C#N)c23)n1)[C@H](C)c1cccnc1N [Compound 203] ?
> 8.00

----------
study-system: GST-tagged KRAS-G12D (2-169) (Homo sapiens, UniProt P01116, G12D)
Sequence (P01116 2-169 isoform P01116-2 G12D): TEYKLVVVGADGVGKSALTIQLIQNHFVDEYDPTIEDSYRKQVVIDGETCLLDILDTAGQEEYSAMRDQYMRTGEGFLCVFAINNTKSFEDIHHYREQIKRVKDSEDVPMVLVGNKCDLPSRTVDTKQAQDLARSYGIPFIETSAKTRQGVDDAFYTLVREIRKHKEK
assay-name: Nucleotide exchange assay (NEA), SOS-mediated, HTRF, KRAS G12D
Type: biochemical
condition-parameters: Table 4; IC50 extracted at 30 min; 20 nM SOScat; read-out: NEA G12D IC50
pIC50: −log10 of the molar value.
Exercise: state measured pIC50 for each of the molecules provided.

// fetch GST-tagged KRAS-G12D (2-169) (Homo sapiens, UniProt P01116, G12D) pIC50 for CC(c1cccnc1N)N(C)c1nc(OC[C@@]23CCCN2C[C@H](F)C3)nc(N2CC3(C2)SCc2sc(N)c(C#N)c23)n1 (single isomer, unassigned) [Compound 120A]
> 8.00

// fetch GST-tagged KRAS-G12D (2-169) (Homo sapiens, UniProt P01116, G12D) pIC50 for CC(CC#N)N(C)c1nc(OC[C@@]23CCCN2C[C@H](F)C3)nc(N2CC3(C2)SCc2sc(N)c(C#N)c23)n1 (stereo partly drawn) [Compound 249]
> 8.00

// fetch GST-tagged KRAS-G12D (2-169) (Homo sapiens, UniProt P01116, G12D) pIC50 for N#Cc1c(N)sc2c1C1(CC2)CN(c2nc(OCC3(CN4CCOCC4)CC3)nc(OC3COCC3O)n2)C1 (racemic) [Compound 77]
4.70 to 6.00

// fetch GST-tagged KRAS-G12D (2-169) (Homo sapiens, UniProt P01116, G12D) pIC50 for N#Cc1c(N)sc2c1C1(CC2)CN(c2nc(OCC3(CN4CCOCC4)CC3)nc(N3CCCC(O)(C(F)F)C3)n2)C1 (stereo not drawn) [Compound 106]
7.00 to 8.00

// fetch GST-tagged KRAS-G12D (2-169) (Homo sapiens, UniProt P01116, G12D) pIC50 for N#Cc1c(N)sc2c1C1(CC2)CN(c2nc(OC[C@@]34CCCN3C[C@H](F)C4)nc(N3CCc4n[nH]c(N)c4C3)n2)C1 [Compound 35]
6.00 to 7.00

// fetch GST-tagged KRAS-G12D (2-169) (Homo sapiens, UniProt P01116, G12D) pIC50 for C=C1CN2CCCC2(COc2nc(N3CC4(CCc5sc(N)c(C#N)c54)C3)nc(N3CCC[C@@](C)(O)C3)n2)C1 (stereo partly drawn) [Compound 55]
> 8.00
